# Test system: NCI/ADR-RES ovarian
# EXPERIMENTAL DETAILS: NCI-60 one-dose screen, 48 h (100 = growth as untreated, 0 = no growth, -100 = all killed)
# CONDITION INFO: 10 µM unless noted
The panel holds about 83,000 compounds, 20% with a hit somewhere; the sample as a whole holds those more often.
Lab note - cut at 80% for growth: rule met if strictly below, rule not met if not.

Below are worked cases with known answers.
CN1C(=O)C2(SCC(C(=O)NCC(=O)OC(C)(C)C)N2C(=O)C2CCCCC2)c2ccccc21 (stereo unspecified)	rule not met
COc1ccc(C(=O)Cn2cnc3c(Nc4cc(C(=O)Nc5ccc(N6CCN(CCO)CC6)cc5)ccc4C)ncnc32)cc1	rule not met
CCc1cccc(C)c1NC(=O)c1sc2nc3c(cc2c1N)CCCCC3	rule met
CCc1c(C)c2cc3c(c(C)c2oc1=O)OCC(=O)N3	rule met
CCc1c2cc(Cl)ccc2n2cc(Cc3ccccc3)[nH]c(=O)c12	rule not met

Now consider the entry below.
Determine whether this compound shows growth lower than 80% (ties excluded): Fc1ccc(/C=N/n2c(-c3cc(Cl)cc(Cl)c3Cl)nn(CNc3ccc(Cl)nn3)c2=S)cc1
rule not met
